The compounds listed here are annotated with their concentration at 0.5 h.
Assay: Plasma and brain concentrations at 0.5 and 1 h in mice
Assay type: in vivo
Conditions: male, mouse, brain; PO (10 mg/kg), 0.5 h; read-out: Brain concentration

compound: C=C(C)c1cnc(-c2cc(Cl)ccc2F)cc1Nc1ccncc1C(=O)NC[C@H](C)O (single isomer, unassigned)
attribute.measured: concentration at 0.5 h
result: 305 ng/mL

# compound CC(C)c1cnc(-c2cc(Cl)ccc2F)cc1Nc1ccncc1C(=O)NC[C@H](C)O (single isomer, unassigned) ; its concentration at 0.5 h = 202 ng/mL

---

The compounds listed here are annotated with their concentration at 1 h.
Experiment: Plasma and brain concentrations at 0.5 and 1 h in mice
Assay type: in vivo
Details: male, mouse, brain; IV (2 mg/kg), 1 h; read-out: Brain concentration
Kindly answer with a numeric value in ng/mL, unit omitted.

compound: C=C(C)c1cnc(-c2cc(Cl)ccc2F)cc1Nc1ccncc1C(=O)NC[C@H](C)O (single isomer, unassigned)
unit.spec: ng/mL
concentration at 1 h: 168

Next up:
# compound CC(C)c1cnc(-c2cc(Cl)ccc2F)cc1Nc1ccncc1C(=O)NC[C@H](C)O (single isomer, unassigned) ; its concentration at 1 h = 82.4

---

Assay: Pharmacokinetics and bioavailability in male mice after a single dose
Assay type: in vivo
Details: mouse, plasma, oral, 10 mg/kg
attribute.measured: bioavailability (%)
Kindly answer with a numeric value in %, unit omitted.

# compound COc1cnc(-c2cc(Cl)ccc2F)cc1Nc1ccncc1C(=O)NC[C@H](C)O (single isomer, unassigned) [13a] ; its bioavailability = 72.3

# compound CCc1cnc(-c2cc(Cl)ccc2F)cc1Nc1ccncc1C(=O)NC[C@H](C)O (single isomer, unassigned) [11a] ; its bioavailability = 62.2

# compound C=C(C)c1c(Nc2ccncc2C(=O)NC[C@H](C)O)cc(-c2cc(Cl)ccc2F)nc1N (single isomer, unassigned) [23a] ; its bioavailability = 16.4

# compound CC(C)c1cnc(-c2cc(Cl)ccc2F)cc1Nc1ccncc1C(=O)NCCN ; its bioavailability = 15.5

---

Assay: Pharmacokinetics and bioavailability in male mice after a single dose
Format: in vivo
Details: intravenous, 2 mg/kg
The compounds listed here are annotated with their log10 of V.
For clarity, the numbers are log10 values of V expressed in L/kg.

Record excerpt, results attached:
compound: CC(C)c1cnc(-c2cc(Cl)ccc2F)cc1Nc1ncncc1C(=O)NC[C@H](C)O (single isomer, unassigned) [12a]
log10 of V: 0.45

compound: CC(C)c1cnc(-c2cc(Cl)ccc2F)cc1Nc1ccncc1C(=O)NCCN
log10 of V: 1.32

compound: C[C@H](O)CNC(=O)c1cnccc1Nc1cc(-c2cc(Cl)ccc2F)ncc1N(C)C (single isomer, unassigned) [16a]
log10 of V: -0.01

compound: CC(C)c1cnc(-c2cc(Cl)ccc2F)cc1Nc1ccncc1C(=O)NC[C@H](C)O (single isomer, unassigned)
log10 of V: 0.62

compound: CC(=O)NCCNC(=O)c1cnccc1Nc1cc(-c2cc(Cl)ccc2F)ncc1C(C)C
log10 of V: 0.59

compound: C=C(C)c1cnc(-c2cc(Cl)ccc2F)cc1Nc1ccncc1C(=O)NC[C@H](C)O (single isomer, unassigned)
log10 of V: 0.11

compound: C=C(C)c1cnc(-c2cc(Cl)ccc2F)cc1Nc1ccncc1C(=O)NCCO
log10 of V: 0.79

compound: CC(C)c1cnc(-c2cc(Cl)ccc2F)cc1Nc1ccncc1C(=O)NC(CO)CO
log10 of V: 0.39

# compound C=C(C)c1cnc(-c2cc(Cl)ccc2F)cc1Nc1ccncc1C(=O)NC(C)(C)CO ; its log10 of V = 1.17

# compound COc1cnc(-c2cc(Cl)ccc2F)cc1Nc1ccncc1C(=O)NC[C@H](C)O (single isomer, unassigned) [13a] ; its log10 of V = 0.57

---

# collection of IC50 values tested on ALK1 (ACVRL1) (Homo sapiens (Human))
# Sequence (P37023 22-503): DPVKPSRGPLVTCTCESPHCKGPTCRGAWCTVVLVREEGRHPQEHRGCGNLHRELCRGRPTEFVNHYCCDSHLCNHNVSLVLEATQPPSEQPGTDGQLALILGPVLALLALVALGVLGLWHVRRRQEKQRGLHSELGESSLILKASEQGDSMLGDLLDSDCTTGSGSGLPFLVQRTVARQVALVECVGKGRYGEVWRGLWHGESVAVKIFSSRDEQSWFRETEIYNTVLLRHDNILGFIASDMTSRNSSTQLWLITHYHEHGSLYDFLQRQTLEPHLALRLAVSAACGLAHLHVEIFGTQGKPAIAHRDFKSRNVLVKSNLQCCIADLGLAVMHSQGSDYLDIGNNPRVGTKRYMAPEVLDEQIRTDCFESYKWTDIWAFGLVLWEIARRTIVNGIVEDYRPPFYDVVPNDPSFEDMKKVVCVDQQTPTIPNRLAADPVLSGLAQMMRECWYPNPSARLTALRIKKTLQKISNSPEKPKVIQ

Record excerpt, results attached:
molecule: C=C(C)c1cnc(-c2cc(Cl)ccc2F)cc1Nc1ccncc1C(=O)N1CCCC1
result: > 10 µM
--
molecule: C=C(C)c1cnc(-c2cc(Cl)ccc2F)cc1Nc1ccncc1C(=O)NC(C)(C)CO
result: > 100 µM
--
molecule: CC(O)CNC(=O)c1c[nH]nc1Nc1cc(-c2cc(Cl)ccc2F)ncc1C(C)C (single isomer, unassigned) [21a]
result: > 100 µM

# molecule C=C(C)c1cnc(-c2cc(Cl)ccc2F)cc1Nc1ccncc1C(=O)N[C@@H](CC)CO (single isomer, unassigned) [24a] ; its IC50 = > 100 µM

---

Experiment: Plasma and brain concentrations at 0.5 and 1 h in mice
Assay type: in vivo
Settings: male, mouse, brain, 10 mg/kg; PO, 1 h; read-out: Brain Concentration
attribute.measured: concentration at 1 h
# number then unit; no other words

molecule: CC(C)c1cnc(-c2cc(Cl)ccc2F)cc1Nc1ccncc1C(=O)NC(CO)CO
concentration at 1 h: 15 nM

Next up:
# molecule C[C@H](O)CNC(=O)c1cnccc1Nc1cc(-c2cc(Cl)ccc2F)ncc1N(C)C (single isomer, unassigned) [16a] ; its concentration at 1 h = 25 nM

---

The compounds listed here are annotated with their Cmax.
Experiment: Pharmacokinetics and bioavailability in male mice after a single dose
Format: in vivo
Conditions: mouse, plasma, intravenous, 2 mg/kg
Kindly answer with a numeric value in nM, unit omitted.

compound: C=C(C)c1cnc(-c2cc(Cl)ccc2F)cc1Nc1ccncc1C(=O)NC[C@H](C)O (single isomer, unassigned)
Cmax (nM): 602

compound: C=C(C)c1c(Nc2ccncc2C(=O)NC[C@H](C)O)cc(-c2cc(Cl)ccc2F)nc1N (single isomer, unassigned) [23a]
Cmax (nM): 2560

compound: C=C(C)c1cnc(-c2cc(Cl)ccc2F)cc1Nc1ccncc1C(=O)NCCO
Cmax (nM): 3000

compound: COc1cnc(-c2cc(Cl)ccc2F)cc1Nc1ccncc1C(=O)NC[C@H](C)O (single isomer, unassigned) [13a]
Cmax (nM): 1420

compound: CC(C)c1cnc(-c2cc(Cl)ccc2F)cc1Nc1ccncc1C(=O)NC[C@H](C)O (single isomer, unassigned)
Cmax (nM): 544

# compound CC(C)c1cnc(-c2cc(Cl)ccc2F)cc1Nc1ccncc1C(=O)NCCN ; its Cmax = 520

# compound CC(=O)NCCNC(=O)c1cnccc1Nc1cc(-c2cc(Cl)ccc2F)ncc1C(C)C ; its Cmax = 3010

---

Molecular target: ALK2 (ACVR1) (Homo sapiens (Human))
Sequence (Q04771 21-509): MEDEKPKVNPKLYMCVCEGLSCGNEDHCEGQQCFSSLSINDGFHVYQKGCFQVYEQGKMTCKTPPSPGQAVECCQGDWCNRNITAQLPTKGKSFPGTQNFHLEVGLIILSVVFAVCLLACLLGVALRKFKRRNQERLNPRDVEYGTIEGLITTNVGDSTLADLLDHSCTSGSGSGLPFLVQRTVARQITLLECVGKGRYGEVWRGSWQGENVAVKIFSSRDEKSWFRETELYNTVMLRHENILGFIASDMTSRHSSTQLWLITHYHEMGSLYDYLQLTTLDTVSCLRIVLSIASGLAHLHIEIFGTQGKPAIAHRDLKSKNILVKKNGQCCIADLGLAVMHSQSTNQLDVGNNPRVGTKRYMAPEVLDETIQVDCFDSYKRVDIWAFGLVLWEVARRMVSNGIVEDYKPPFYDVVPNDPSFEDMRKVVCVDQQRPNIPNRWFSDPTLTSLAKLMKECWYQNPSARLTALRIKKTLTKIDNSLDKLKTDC
Test: In vitro kinase assay, ALK2
Assay type: biochemical
Settings: read-out: Inhibition of ALK2 IC50
attribute.measured: IC50 (µM)
Kindly answer with a numeric value in µM, unit omitted.

Record excerpt, results attached:
chemical.string: Fc1ccc(Cl)cc1-c1cc(Nc2ccnc3[nH]ccc23)c(C2CC2)cn1
assayed.system: ALK2 (ACVR1) (Homo sapiens (Human))
unit.spec: µM
IC50: 5.84

chemical.string: CC(C)c1cnc(-c2cc(Cl)ccc2F)cc1Nc1ncnc2[nH]ncc12
assayed.system: ALK2 (ACVR1) (Homo sapiens (Human))
unit.spec: µM
IC50: 8.93

# compound CC(C)c1cnc(-c2cc(Cl)ccc2F)cc1Nc1ncnc2[nH]ccc12 ; its IC50 = 5.45

# compound CC(C)c1cnc(-c2ncccc2F)cc1Nc1ccnc2[nH]ccc12 ; its IC50 = 60.6
